The measured values listed here are drawn from patent US20230150951A1.

The following molecules are listed with their measured IC50 values.
biological target: VEGFR-2 (Homo sapiens, UniProt P35968); construct: endogenous in cells; assay: VEGF-165 induced phosphorylation of VEGF-Receptor on HUVEC; details: HUVEC preincubated 60 min, VEGF165 25 ng/mL 2 min; read-out: VEGFR-Phosphorylation inhibition IC50
Sequence (P35968 20-1356): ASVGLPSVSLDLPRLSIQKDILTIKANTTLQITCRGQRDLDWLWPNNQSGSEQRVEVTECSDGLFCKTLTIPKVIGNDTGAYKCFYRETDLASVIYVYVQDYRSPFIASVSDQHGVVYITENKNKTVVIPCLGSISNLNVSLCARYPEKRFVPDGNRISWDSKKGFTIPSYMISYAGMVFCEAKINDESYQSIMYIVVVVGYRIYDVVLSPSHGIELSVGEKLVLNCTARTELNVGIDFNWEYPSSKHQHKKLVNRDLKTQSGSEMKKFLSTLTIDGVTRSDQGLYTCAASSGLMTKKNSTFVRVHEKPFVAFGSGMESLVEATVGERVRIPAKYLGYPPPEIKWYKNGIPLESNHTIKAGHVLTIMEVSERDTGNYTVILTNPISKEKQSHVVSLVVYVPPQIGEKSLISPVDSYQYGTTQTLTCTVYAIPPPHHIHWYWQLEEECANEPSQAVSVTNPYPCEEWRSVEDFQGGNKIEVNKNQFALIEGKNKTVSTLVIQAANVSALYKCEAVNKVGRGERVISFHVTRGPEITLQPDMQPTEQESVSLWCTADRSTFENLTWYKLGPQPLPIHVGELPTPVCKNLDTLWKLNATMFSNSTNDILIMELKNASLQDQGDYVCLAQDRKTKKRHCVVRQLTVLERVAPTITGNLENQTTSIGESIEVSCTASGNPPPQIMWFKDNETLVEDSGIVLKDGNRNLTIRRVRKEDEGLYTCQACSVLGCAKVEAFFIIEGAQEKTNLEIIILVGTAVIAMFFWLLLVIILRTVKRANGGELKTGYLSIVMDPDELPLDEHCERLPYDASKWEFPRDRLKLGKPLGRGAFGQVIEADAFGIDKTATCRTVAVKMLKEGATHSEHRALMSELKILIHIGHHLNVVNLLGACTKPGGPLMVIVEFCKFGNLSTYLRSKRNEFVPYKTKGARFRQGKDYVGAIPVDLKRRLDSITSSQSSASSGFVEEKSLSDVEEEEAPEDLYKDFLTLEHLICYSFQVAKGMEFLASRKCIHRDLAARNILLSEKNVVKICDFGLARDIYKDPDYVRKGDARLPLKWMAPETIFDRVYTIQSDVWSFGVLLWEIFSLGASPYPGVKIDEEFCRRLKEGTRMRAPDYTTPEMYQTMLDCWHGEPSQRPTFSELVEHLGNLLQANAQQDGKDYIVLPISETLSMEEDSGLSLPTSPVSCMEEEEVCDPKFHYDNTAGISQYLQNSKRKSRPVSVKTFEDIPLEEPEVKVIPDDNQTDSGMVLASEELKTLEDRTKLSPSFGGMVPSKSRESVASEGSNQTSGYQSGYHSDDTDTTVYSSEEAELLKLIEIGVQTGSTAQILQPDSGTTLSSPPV
Reply with just the number (in µM).

COC(=O)c1cc(O)cc(CS(=O)(=O)Cc2cc(O)cc(C(=O)OC)c2O)c1O [IVc-059a-E2]
2.7
O=C(Nc1ccccc1-c1nnn[nH]1)c1cc(O)c(C(=O)Nc2ccccc2-c2nnn[nH]2)cc1O
2.2

Okay, now this molecule:
Q: Please provide the recorded IC50 for COC(=O)c1cc(NC(=O)c2cc(O)c(C(=O)Nc3ccccc3-c3nnn[nH]3)cc2O)ccc1O [Ic-001a-Tz/004a-E1] , tested on VEGFR-2 (Homo sapiens, UniProt P35968).
A: 0.1

---

The following compounds are listed with their measured TGF-B values.
tested on: acute pancreatitis murine model; test: Caerulein-induced acute pancreatitis murine model; format: in vivo, Balb/c mice; conditions: second experiment; IV, 15 mg/kg; Pirfenidone 100 mg/kg
Reply with just the number (in ng/mL).

Recorded results for 3 compounds are shown here.
O=C(O)c1cc(NC(=O)c2cc(O)cc(C(=O)Nc3ccc(O)c(C(=O)O)c3)c2O)ccc1O [IIc-007a]
500
Cc1ccc(=O)n(-c2ccccc2)c1 [pirfenidone, reference compound]
578
O=C(Nc1ccccc1-c1nnn[nH]1)c1cc(O)c(C(=O)Nc2ccccc2-c2nnn[nH]2)cc1O
696

Q: Recorded TGF-B for O=C(O)c1cc(NC(=O)c2cc(O)c(C(=O)O)cc2O)cc(C(=O)O)c1 [Ia-015a] , please?
A: 547

Q: Now give it for O=C(O)c1cc(O)cc(CS(=O)(=O)Cc2cc(O)cc(C(=O)O)c2O)c1O [IVc-059a] too.
A: 403

---

Molecular target: VEGF-A (Homo sapiens, UniProt P15692)
Sequence (P15692 27-191 isoform P15692-4): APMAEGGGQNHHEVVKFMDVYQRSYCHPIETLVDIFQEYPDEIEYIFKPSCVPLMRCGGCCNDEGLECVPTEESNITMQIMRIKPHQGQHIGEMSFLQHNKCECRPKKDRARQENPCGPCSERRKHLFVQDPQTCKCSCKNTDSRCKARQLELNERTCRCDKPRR
Assay: VEGF-A induced sprouting of HUVEC, spheroid-based cellular angiogenesis assay
Settings: VEGF-A 25 ng/mL preincubated with compound, 24 h, read-out: VEGF-A1 IC50
Under this convention, True denotes IC50 strictly below 100 µM and False denotes IC50 at or above 100 µM.

Q: Please determine if O=C(Nc1ccccc1-c1nnn[nH]1)c1cc(O)c(C(=O)Nc2ccccc2-c2nnn[nH]2)cc1O [Ic-001aTz2] is below 100 µM in terms of IC50.
A: True

Q: Now give it for O=C(O)c1cc(O)cc(C(=O)NCc2ccc(O)c(O)c2)c1O [IIa-035a] too.
A: True

Q: Now give it for O=C(O)c1cc(O)c(C(=O)NCCc2ccc(O)c(O)c2)cc1O [Ia-035a-2] too.
A: False

Q: Now give it for O=C(O)c1cc(O)c(C(=O)Nc2ccc(O)cc2C(=O)O)cc1O [Ia-006a] too.
A: False

Q: Now give it for O=C(O)c1cc(O)c(CSCc2cc(O)c(C(=O)O)cc2O)cc1O [IIIc-058a] too.
A: False

Q: Now give it for O=C(O)c1cc(NC(=O)c2cc(O)cc(C(=O)O)c2O)cc(NC(=O)c2cc(O)cc(C(=O)O)c2O)c1 [IIb-010a] too.
A: True

Q: Now give it for O=C(O)c1cc(O)c(C(=O)Nc2ccc(C(=O)O)c(C(=O)O)c2)cc1O [Ia-014a] too.
A: True

Q: Now give it for O=C(O)c1cc(O)c(COCc2cc(O)c(C(=O)O)cc2O)cc1O [IIIc-060a] too.
A: False

Q: Now give it for O=C(O)c1cc(O)c(C(=O)NC(Cc2ccc(O)c(O)c2)C(=O)O)cc1O (stereo not drawn) [Ia-035a-3] too.
A: False

---

Target: VEGF-A (Homo sapiens)
Sequence (P15692 27-191 isoform P15692-4): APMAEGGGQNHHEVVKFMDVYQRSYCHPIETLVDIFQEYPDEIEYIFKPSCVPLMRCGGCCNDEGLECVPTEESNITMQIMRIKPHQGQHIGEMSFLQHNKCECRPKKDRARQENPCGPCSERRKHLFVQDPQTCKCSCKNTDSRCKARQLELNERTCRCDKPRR
Experiment: VEGF-A induced sprouting of HUVEC, spheroid-based cellular angiogenesis assay
Details: VEGF-A 25 ng/mL preincubated with compound, 24 h, read-out: VEGF-A1 IC50
The following molecules are listed with their measured pIC50 values.
Note: pIC50 values are expressed as the negative base-10 logarithm of concentration in M.

Recorded results for 5 molecules are shown here.
O=C(O)c1cc(O)cc(CSCc2cc(O)cc(C(=O)O)c2O)c1O [IVc-058a]
4.08
O=C(O)Cc1cc(O)c(C(=O)Nc2ccccc2-c2nnn[nH]2)cc1O [IIIa-001aTz]
4.92
O=C(O)c1cc(O)ccc1NC(=O)c1cc(O)cc(C(=O)O)c1O [IIa-006a]
3.92
O=C(O)c1cc(O)cc(C(=O)Nc2c(C(=O)O)cccc2C(=O)O)c1O [IIa-013a]
4.47
O=C(O)c1cc(NC(=O)c2cc(O)c(C(=O)Nc3ccccc3-c3nnn[nH]3)cc2O)ccc1O [Ic-001a-Tz/004a]
4.60

Q: Recorded pIC50 for O=C(O)Cc1cc(O)c(C(=O)Nc2c(C(=O)O)cccc2C(=O)O)cc1O [IIIa-013a] , please?
A: 4.37

Q: Now give it for O=C(O)c1cc(NC(=O)c2cc(O)c(C(=O)O)cc2O)cc(NC(=O)c2cc(O)c(C(=O)O)cc2O)c1 [Ib-010a] too.
A: 4.82

Q: Now give it for CCOC(=O)Cc1cc(O)c(C(=O)Nc2cc(C(=O)OCC)cc(C(=O)OCC)c2)cc1O [IIIa-015a-E3] too.
A: 4.06

Q: Now give it for CCOC(=O)c1cc(O)c(C(=O)Nc2cnccc2C(=O)OCC)cc1O [Ia-023a-E2] too.
A: 3.85

---

The following compounds are listed with their measured pIC50 values.
test system: IFN-gamma; test: Cytokine release after LPS induction on human whole blood: IFNγ; format: cell-based; conditions: human whole blood, inhibition of LPS induced inflammation; read-out: IC50 IFNγ
Note: pIC50 values are expressed as the negative base-10 logarithm of concentration in M.

Recorded results for 7 compounds are shown here.
O=C(O)c1cc(O)c(C(=O)Nc2ccccc2C(=O)O)cc1O [Ia-001a]
4.52
O=C(O)c1cc(O)ccc1NC(=O)c1cc(O)cc(C(=O)Nc2ccc(O)cc2C(=O)O)c1O [IIc-009a]
6.27
O=C(O)c1cc(O)c(CN(Cc2cc(O)c(C(=O)O)cc2O)Cc2cc(O)c(C(=O)O)cc2O)cc1O [IIIc-061a]
5.61
O=C(O)c1cc(NC(=O)c2cc(O)c(C(=O)O)cc2O)cc(C(=O)O)c1 [Ia-015a]
4.00
O=C(O)c1ccccc1CNC(=O)c1cc(O)cc(C(=O)O)c1O [IIa-053a]
5.98
CC(=O)N(Cc1cc(O)c(C(=O)O)cc1O)Cc1cc(O)c(C(=O)O)cc1O [IIIc-057a]
6.05
O=C(O)c1cc(NC(=O)c2cc(O)c(C(=O)O)cc2O)cc(NC(=O)c2cc(O)c(C(=O)O)cc2O)c1 [Ib-010a]
5.65

Okay, now this compound:
Q: Recorded pIC50 for O=C(O)c1cc(NC(=O)c2cc(O)c(C(=O)Nc3ccc(O)c(C(=O)O)c3)cc2O)ccc1O [Ic-007a] , please?
A: 5.84

---

test system: IL-18; experiment: Cytokine release after LPS induction on human whole blood: IL-18; format: cell-based; conditions: Homo sapiens, read-out: IC50 IL-18
assay.metric: pIC50
Note: pIC50 values are expressed as the negative base-10 logarithm of concentration in M.

Q: Recorded pIC50 for O=C(O)c1cc(NC(=O)c2cc(O)c(C(=O)Nc3ccccc3-c3nnn[nH]3)cc2O)ccc1O [Ic-001a-Tz/004a] , please?
A: 4.33

---

molecular target: FGF-2 (Homo sapiens, UniProt P09038); assay: FGF-2 induced sprouting of HUVEC, spheroid-based cellular angiogenesis assay; settings: FGF-2 25 ng/mL preincubated with compound, 24 h
Sequence (P09038 134-288): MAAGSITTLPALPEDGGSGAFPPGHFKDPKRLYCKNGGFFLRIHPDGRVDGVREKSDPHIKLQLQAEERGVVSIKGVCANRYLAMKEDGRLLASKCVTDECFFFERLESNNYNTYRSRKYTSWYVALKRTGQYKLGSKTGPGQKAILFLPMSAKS
assay.metric: pIC50
Note: pIC50 values are expressed as the negative base-10 logarithm of concentration in M.

Recorded results for 5 compounds are shown here.
CCOC(=O)Cc1cc(O)c(C(=O)Nc2cc(C(=O)OCC)cc(C(=O)OCC)c2)cc1O [IIIa-015a-E3]
3.72
O=C(O)Cc1cc(O)c(C(=O)Nc2c(C(=O)O)cccc2C(=O)O)cc1O [IIIa-013a]
4.51
O=C(O)Cc1cc(O)c(C(=O)Nc2ccccc2-c2nnn[nH]2)cc1O
4.85
O=C(O)c1cc(O)c(C(=O)Nc2cccc(-c3nnn[nH]3)c2)cc1O [Ia-002a-Tz]
4.28
CCOC(=O)c1cc(O)c(C(=O)Nc2ccc(O)c(C(=O)OC)c2)cc1O [Ia-004a-E2]
4.44

Q: Recorded pIC50 for O=C(O)c1cc(O)c(C(=O)NCCc2ccc(O)c(O)c2)cc1O [Ia-035a-2] , please?
A: 4.19

Q: Now give it for O=C(Nc1ccccc1-c1nnn[nH]1)c1cc(O)c(C(=O)Nc2ccccc2-c2nnn[nH]2)cc1O too.
A: 4.15

Q: Now give it for O=C(O)c1cc(O)c(C(=O)Nc2ccccc2C(=O)O)cc1O [Ia-001a] too.
A: 4.41

Q: Now give it for O=C(O)c1cc(O)cc(C(=O)NCc2ccc(O)c(O)c2)c1O [IIa-035a] too.
A: 4.21
